B1: PRKC apoptosis WT1 regulator protein (Homo sapiens), Q96IZ0 (parent)
chain: MATGGYRTSSGLGGSTTDFLEEWKAKREKMRAKQNPPGPAPPGGGSSDAAGKPPAGALGTPAAAAANELNNNLPGGAPAAPAVPGPGGVNCAVGSAMLTRAAPGPRRSEDEPPAASASAAPPPQRDEEEPDGVPEKGKSSGPSARKGKGQIEKRKLREKRRSTGVVNIPAAECLDEYEDDEAGQKERKREDAITQQNTIQNEAVNLLDPGSSYLLQEPPRTVSGRYKSTTSVSEEDVSSRYSRTDRSGFPRYNRDANVSGTLVSSSTLEKKIEDLEKEVVRERQENLRLVRLMQDKEEMIGKLKEEIDLLNRDLDDIEDENEQLKQENKTLLKVVGQLTR

# Variants of: B1
# Measurement Context: with spsb2_mouse Spsb2, O88838
# Sequence (O88838 whole entry): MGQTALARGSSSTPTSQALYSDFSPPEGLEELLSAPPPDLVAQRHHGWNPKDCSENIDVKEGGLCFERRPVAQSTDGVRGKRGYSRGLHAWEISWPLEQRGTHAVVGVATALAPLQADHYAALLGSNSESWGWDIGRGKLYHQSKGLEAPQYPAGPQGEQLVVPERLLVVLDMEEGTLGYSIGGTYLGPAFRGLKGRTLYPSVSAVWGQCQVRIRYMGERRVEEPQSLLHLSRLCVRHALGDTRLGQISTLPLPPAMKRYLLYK
Quantity Kind: effect of a mutation on the interaction

The examples below pair each entry with its known result.
• L69I = increasing interaction
• E68D = increasing interaction
• N70A = disrupting interaction
• E68D;L69I = increasing interaction

Now let's try a different one.
Task: Answer with reported effect of a mutation on the interaction of "N71A"
Result: disrupting interaction
